Measured values drawn from ChEMBL document CHEMBL1150352 for this set.

Test system: Mus musculus
assay.summary: Antihyperglycemic activity in C57BL/KsJ db/db mouse at 25 mg/kg, sc administered twice a day for 4 days and once on day 5 after 60 mins of load injection by insulin suppression test relative to control
Assay type: functional
recorded.conditions: route subcutaneous
Activity overview
Enter your answer as a number in %; do not include the unit.

Please review the following examples before continuing.
# compound, property.measured, unit.abbreviation, observed.result
measured = [
    ("N=C(NCC1CCC(CN)CC1)NCC1CC1 (centres undefined)", "Activity", "%", -43),
    ("N=C(NCCCCN)NCCCc1ccccc1", "Activity", "%", -8),
    ("NCCCCCCN/C(=N/c1ccc(F)cc1)N1CCCCC1", "Activity", "%", -8),
]

Here is another compound to look at.
Consider the compound CC(C)CCNC(=N)NCCCCCCN and give its measured Activity. -24
